Hello, the source for this data is ChEMBL document CHEMBL1201862, in case you need it.

System: Malme-3M
Test: NCI tumour cell line growth inhibition, 48 h
Activity calls are given as the source filed them. No stated cut-off is given here; in the data, active = GI50 up to about 1.1 µM and inactive = higher. Residues, ends and D or L forms follow the SMILES beside them. Groups on a side chain read outwards from the residue. *: point of attachment. Cbz = O=C(OCc1ccccc1)*; Boc = CC(C)(C)OC(=O)*
Respond using exactly one of the listed classes: active, inactive

Examples from the recorded data:
CCOC(=O)c1cc(C2CCN(Cc3ccccc3)C2=O)c(C(=O)C(=[N+]=[N-])C(C)=O)[nH]1 (stereo unspecified)    inactive
O=CNNC(=O)Nc1cccc2ccccc12    inactive
CCN(CC)C(=O)c1cccc2c(OC)ccc(OC)c12    inactive
CC(C)(C)OC(=O)NC(CCCCNC(=O)CNC(=O)OCc1ccccc1)C(=O)NC(CCCCNC(=O)CNC(=O)OCc1ccccc1)C(=O)NC(CCCCNC(=O)CNC(=O)OCc1ccccc1)C(=O)NC(CCCCNC(=O)CNC(=O)OCc1ccccc1)C(=O)O (stereo unspecified) (Boc-K([Gly-Cbz])K([Gly-Cbz])K([Gly-Cbz])K([Gly-Cbz])-OH; configuration not given here)    inactive
CCOC(=O)c1cn2c([nH]c3ccccc32)c(C#N)c1=O    inactive

Prompt: Check the results log: what was the call for CC[C@H](C)[C@H]1NC(=O)[C@@H](NC(=O)[C@@H](CC(C)C)N(C)C(=O)C2CCCN2C(=O)[C@H](C)O)[C@@H](C)OC(=O)[C@@H]2Cc3ccccc3CN2C(=O)[C@@H]2CCCN2C(=O)[C@H](CC(C)C)NC(=O)[C@@H](C)C(=O)[C@H](C(C)C)OC(=O)C[C@@H]1O (stereo partly specified) ?
Response: active
